Would you kindly list 24 hr Dox Inducible IL2FLGluc 293FRT/TO: IL2/PD1 for each of these molecules?
tested on: IL-2-FL/Gaussia Luciferase; assay: Dox Induced IL2-FL-Gluc Assay; assay type: cell-based; conditions: ratio of IL2FLGluc IC50 to PD1ssGluc IC50

Answer with reported 24 hr Dox Inducible IL2FLGluc 293FRT/TO: IL2/PD1 of O=C(Nc1nc(/C=C/c2cnccn2)cs1)c1cccn1Cc1ccncc1 [Compound B43] >95

Identify measured 24 hr Dox Inducible IL2FLGluc 293FRT/TO: IL2/PD1 corresponding to Cc1cc(/C=C/c2csc(NC(=O)c3cccn3Cc3ccnc(F)c3)n2)no1 [Compound B88] >40

# return recorded 24 hr Dox Inducible IL2FLGluc 293FRT/TO: IL2/PD1 for input CC1=NC(C)(/C=C/c2csc(NC(=O)c3cccn3Cc3ccncc3)n2)CO1 (stereo not shown) [Compound B16] >6.3

Give the value of 24 hr Dox Inducible IL2FLGluc 293FRT/TO: IL2/PD1 reported for the following: O=C(Nc1nc(/C=C/c2c[nH]cn2)cs1)c1cccn1Cc1ccncc1 [Compound B42] >3.7

----------
experiment: Liver Microsome Stability Assay (mouse); conditions: mouse liver microsomes, with NADPH, 1.0 uM compound
Assign Liver Microsome Stability (Multiple Species): Mouse - % Remaining after 30 min w/NADPH to each entry below.
Just the number in %, nothing appended.

Provide one value: measured Liver Microsome Stability (Multiple Species): Mouse - % Remaining after 30 min w/NADPH of O=C(Nc1nc(CCC2CCCCO2)cs1)c1cccn1Cc1ccncc1 (centres unmarked) [Compound E6] 1.82

Specify reported Liver Microsome Stability (Multiple Species): Mouse - % Remaining after 30 min w/NADPH for the compound shown: CS(=O)(=O)N1CC(Oc2ccc(N3CCC[C@@H]3c3csc(NC(=O)c4cccn4Cc4ccnc(F)c4)n3)cc2)C1 [Compound A132] 34.6

Tell me Liver Microsome Stability (Multiple Species): Mouse - % Remaining after 30 min w/NADPH reported for CN(C)C(=O)N1CCC(Oc2ccc(N3CCC[C@@H]3c3csc(NC(=O)c4cccn4Cc4ccnc(F)c4)n3)cc2)CC1 [Compound A137] 1.78

Entry CC(C)n1cnc(/C=C/c2csc(NC(=O)c3cccn3Cc3cc(F)nc(F)c3)n2)c1 [Compound B68] needs its Liver Microsome Stability (Multiple Species): Mouse - % Remaining after 30 min w/NADPH filled in; supply it. 14

Tell us which Liver Microsome Stability (Multiple Species): Mouse - % Remaining after 30 min w/NADPH value is on record for O=C(Nc1nc([C@H]2CCCN2c2ccccc2)cs1)c1cccn1CC1CCS(=O)(=O)CC1 [Compound C37] 26

State its Liver Microsome Stability (Multiple Species): Mouse - % Remaining after 30 min w/NADPH for this compound: O=C(Nc1nc([C@H]2CCCN2c2ccccc2)cs1)c1cccn1CC1CCC(F)(F)C1 (some centres unmarked) [Compound C123] 23.6

Using known records, supply Liver Microsome Stability (Multiple Species): Mouse - % Remaining after 30 min w/NADPH for CC(CC#N)Cn1cccc1C(=O)Nc1nc([C@H]2CCCN2c2ccccc2)cs1 (some centres unmarked) [Compound C20] 4.75

Check the records and state Liver Microsome Stability (Multiple Species): Mouse - % Remaining after 30 min w/NADPH for CC(C)(C)c1nc(/C=C/c2csc(NC(=O)c3cccn3Cc3ccncc3)n2)co1 [Compound B36] 9.8

Specify reported Liver Microsome Stability (Multiple Species): Mouse - % Remaining after 30 min w/NADPH for the compound shown: CCOC(=O)C(C)n1cnc(/C=C/c2csc(NC(=O)c3cccn3Cc3ccnc(F)c3)n2)c1C (centres unmarked) [Compound B119] 2.37

Quote Liver Microsome Stability (Multiple Species): Mouse - % Remaining after 30 min w/NADPH reported for O=C(Nc1nc(/C=C/c2cn3c(n2)CCC3)cs1)c1cccn1Cc1ccncc1 [Compound B71] please. 0.16

Return value of Liver Microsome Stability (Multiple Species): Mouse - % Remaining after 30 min w/NADPH for input CNC(=O)c1ccc(N2CCC[C@@H]2c2csc(NC(=O)c3cccn3Cc3ccncc3)n2)cc1 [Compound A17] , no commentary. 2.94
